Give measured IC50 for each item. Keep answers brief.
Record the value in nM, omitting the unit from your answer.

API: value(readout= IC50, system= prolyl endopeptidase (Rattus norvegicus, UniProt O70196), query= O=C([C@@H]1CCCN1C(=O)OCc1ccccc1)N1CCC[C@H]1C=NO [Compound 12] )
450

API: value(readout= IC50, system= prolyl endopeptidase (Rattus norvegicus, UniProt O70196), query= O=C[C@@H]1CCCN1C(=O)CCC(=O)NCCCN1CCCC1=O [Compound 11] )
25

API: value(readout= IC50, system= prolyl endopeptidase (Rattus norvegicus, UniProt O70196), query= O=C[C@@H]1CSCN1C(=O)[C@@H]1CSCN1C(=O)CN1CCCC1=O [Compound 7] )
5
